target: NQO1 (Homo sapiens, UniProt P15559); construct: hexahistidine tag followed by a thrombin site (N); experiment: NQO1 activity assay (DCPIP reduction); conditions: purified recombinant protein, Fig. 3b; read-out: IC50, inhibition of NQO1 activity
Sequence (P15559 whole entry): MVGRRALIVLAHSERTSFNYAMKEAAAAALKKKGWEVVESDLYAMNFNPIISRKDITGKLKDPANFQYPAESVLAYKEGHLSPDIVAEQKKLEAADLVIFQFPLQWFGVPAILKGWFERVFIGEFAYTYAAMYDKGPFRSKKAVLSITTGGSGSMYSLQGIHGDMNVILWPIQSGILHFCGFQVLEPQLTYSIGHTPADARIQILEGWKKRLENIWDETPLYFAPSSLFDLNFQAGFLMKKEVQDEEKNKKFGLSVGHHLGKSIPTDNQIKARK
quantityName: IC50

// fetch NQO1 (Homo sapiens, UniProt P15559) IC50 for `Cc1onc(-c2ccccc2)c1C(=O)Nc1ncc([N+](=O)[O-])s1` 926 nM

====

target: GSTP1 R100A (Homo sapiens, UniProt P09211, I105V/R101A); construct: hexahistidine tag followed by a thrombin site (N); made in house; host or cells: Escherichia coli BL21 (DE3); test: GSTP1 kinetic assay, R100A mutant; type: biochemical; details: mean ± SEM (n=3)
Sequence (P09211 whole entry R101A/I105V): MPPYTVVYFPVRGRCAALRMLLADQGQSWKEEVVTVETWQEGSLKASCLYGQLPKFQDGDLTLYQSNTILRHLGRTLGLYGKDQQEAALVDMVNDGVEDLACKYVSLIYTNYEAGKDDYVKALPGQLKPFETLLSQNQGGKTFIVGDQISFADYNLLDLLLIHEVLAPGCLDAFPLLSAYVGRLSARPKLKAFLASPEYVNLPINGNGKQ
quantityName: IC50

What measured IC50 goes with Cc1onc(-c2ccccc2)c1C(=O)Nc1ncc([N+](=O)[O-])s1 [MNPC] ? 2.37 µM

====

molecular target: GSTP1 F8A (Homo sapiens, UniProt P09211, F9A/I105V); construct: hexahistidine tag followed by a thrombin site (N); made in house; host or cells: Escherichia coli BL21 (DE3); assay: GSTP1 kinetic assay, F8A mutant; format: biochemical; details: mean ± SEM (n=3)
Sequence (P09211 whole entry F9A/I105V): as the sequence (P09211 whole entry R101A/I105V) above, with F9A, A101R counted along it
quantityName: IC50 (µM)
Field format: number, assumed µM, no unit text.

What measured IC50 goes with `Cc1onc(-c2ccccc2)c1C(=O)Nc1ncc([N+](=O)[O-])s1` ? 2.42

====

biological target: GSTP1 Y108A (Homo sapiens, UniProt P09211, I105V/Y109A); construct: hexahistidine tag followed by a thrombin site (N); made in house; host or cells: Escherichia coli BL21 (DE3); assay: GSTP1 kinetic assay, Y108A mutant; format: biochemical; details: mean ± SEM (n=3)
Sequence (P09211 whole entry I105V/Y109A): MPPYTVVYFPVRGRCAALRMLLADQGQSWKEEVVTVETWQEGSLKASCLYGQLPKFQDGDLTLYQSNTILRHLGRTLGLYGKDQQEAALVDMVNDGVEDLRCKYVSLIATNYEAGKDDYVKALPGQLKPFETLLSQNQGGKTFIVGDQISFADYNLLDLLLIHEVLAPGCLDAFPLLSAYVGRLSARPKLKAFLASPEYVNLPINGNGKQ
quantityName: IC50 (µM)
Field format: number, assumed µM, no unit text.

What measured IC50 goes with `Cc1onc(-c2ccccc2)c1C(=O)Nc1ncc([N+](=O)[O-])s1` ? 25.7
